ASSAY_REMARKS: drug combination growth inhibition, ovarian cancer – cell-based, oncology-focused library, rucaparib conditional, profiling panel (AID 1508598)
EXPERIMENTAL_CONTEXT: patient-derived ovarian cancer cells, CellTiter-Glo viability, 144 h; at 1.25 µM; OCI-C5x cells; without rucaparib
Calls of active or inactive are those of the source.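 The calls were made as follows: active = normalized viability below 100% at a tested concentration; inactive = the rest.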
Labels: active, inactive

TEST_SMILES: CC#C[C@@]1(O)CC[C@H]2[C@@H]3CCC4=CC(=O)CCC4=C3[C@H](c3ccc(N(C)C)cc3)C[C@@]21C
CLASSIFICATION: inactive
--
TEST_SMILES: CO[C@H]1C[C@H]2CC[C@@H](C)[C@@](O)(O2)C(=O)C(=O)N2CCCC[C@H]2C(=O)O[C@H]([C@H](C)C[C@@H]2CC[C@H](OC(=O)C(C)(CO)CO)[C@H](OC)C2)CC(=O)[C@H](C)/C=C(\C)[C@@H](O)[C@@H](OC)C(=O)[C@H](C)C[C@H](C)/C=C/C=C/C=C/1C
CLASSIFICATION: active
--
TEST_SMILES: C=CS(=O)(=O)NC1CCN(C(=O)CNc2cc(I)c(Cl)cc2OC)CC1
CLASSIFICATION: inactive

----------
ASSAY_REMARKS: drug combination toxicity in non-malignant astrocytes – cell-based, BGB or cisplatin IC20 combos, cytotoxicity control for chromothriptic childhood tumor combination screen (AID 1671460);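 also: cells exposed to compounds for 96 hours before viability readout; 0% = vehicle and 100% = killing control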
EXPERIMENTAL_CONTEXT: Human astrocytes, viability inhibition, drug combinations; measured here: combo with BGB IC20; at 0.5 µM; stronger effect = higher value
Non-standard residues stand in square brackets, D forms with d. Residues, ends and D or L forms follow the SMILES beside them. Dolaproine = CO[C@@H]([C@@H]1CCCN1)[C@@H](C)C(=O)O; Dil = CC[C@H](C)[C@H](NC)[C@@H](CC(=O)O)OC; NMeV = CN[C@H](C(=O)O)C(C)C
MEASURED_PROPERTY: inhibition

COMPOUND: CC[C@H](C)[C@@H]([C@@H](CC(=O)N1CCC[C@H]1[C@H](OC)[C@@H](C)C(=O)N[C@@H](Cc1ccccc1)C(=O)O)OC)N(C)C(=O)[C@@H](NC(=O)[C@@H](NC)C(C)C)C(C)C (H-[NMeV]V[Dil][Dolaproine]F-OH)
OBSERVED_MEASUREMENT: 39.5%
//
COMPOUND: C=C(C)C1CCC2(C(=O)O)CCC3(C)C(CCC4C5(C)CCC(O)C(C)(C)C5CCC43C)C12 (configuration not stated)
OBSERVED_MEASUREMENT: -11.2%
//
COMPOUND: O=c1[nH]cnc2c1ncn2C1CCC(CO)O1 (configuration not stated)
OBSERVED_MEASUREMENT: -5.94%
//
COMPOUND: CC(=O)C1(O)Cc2c(O)c3c(c(O)c2C(OC2CC(N)C(O)C(C)O2)C1)C(=O)c1ccccc1C3=O (configuration not stated)
OBSERVED_MEASUREMENT: 84%
//
COMPOUND: C=C(NC(=O)C(=C)NC(=O)c1csc(C2=NC3c4csc(n4)C4NC(=O)c5csc(n5)C(C(C)(O)C(C)O)NC(=O)C5CSC(=N5)/C(=C/C)NC(=O)C(C(C)O)NC(=O)c5csc(n5)C3(CC2)NC(=O)C(C)NC(=O)C(=C)NC(=O)C(C)NC(=O)C(C(C)CC)NC2C=Cc3c(C(C)O)cc(nc3C2O)C(=O)OC4C)n1)C(N)=O (configuration not stated)
OBSERVED_MEASUREMENT: -24.8%
//
COMPOUND: C=C1CCC(O)CC1=CC=C1CCCC2(C)C1CCC2C(C)C=CC(C)C(C)C (configuration not stated)
OBSERVED_MEASUREMENT: 0.485%
//
COMPOUND: O=C1C(=Cc2cccnc2)C(=O)c2ccccc21
OBSERVED_MEASUREMENT: -3.05%
